experiment: yeast display, Sf9 membrane polyspecificity reagent, FACS + sequencing; frameworks hold sequencing errors
property.name: polyreactivity (PSR sort gate)

QDQLVESGVGLVQAGGSLRLSCAASGYIFLLYDMGWYRQAPGKEREMVATITSGGGTYYADSVKGRVTISRDNAKNTVYLQMNSLIPEDTAVYYCNADLYRWTGRSYWDKHGSWGQGTQVTVSS :: low polyreactivity
QVQIVETGGVLVQAGGSLRLSFADAGLTIYIYAMGWYRQAPGKETELFPAISWIGDSTYYADSVKGLFTISRDNAKNTVYLQLNSLKPEDTAVYYCAADSWRYVAEGLWREYDYWGQGTQVTVSS :: low polyreactivity
